- Test system: WHIM30 (cells of a triple-negative basal-like breast cancer xenograft)
- Test protocol: cell viability of combination (% of vehicle); higher = less cytotoxic
- Study conditions: 1 µM; 72 h; partner dose: 10 nM
The following compounds are shown together with reported cell viability of combination values.

{"Compound": "CCCSc1nc(NC2CC2c2ccc(F)c(F)c2)c2nnn(C3CC(OCCO)C(O)C3O)c2n1 (configuration not stated) [Ticagrelor] + CC(C)C[C@H](NC(=O)[C@H](CCc1ccccc1)NC(=O)CN1CCOCC1)C(=O)N[C@@H](Cc1ccccc1)C(=O)N[C@@H](CC(C)C)C(=O)[C@@]1(C)CO1", "Target of assay": "WHIM30", "cell viability of combination": 14.4}
{"Compound": "CC(C)(C)c1ccc(C(=O)CCCN2CCC(OC(c3ccccc3)c3ccccc3)CC2)cc1 [Ebastine] + CC(C)C[C@H](NC(=O)[C@H](CCc1ccccc1)NC(=O)CN1CCOCC1)C(=O)N[C@@H](Cc1ccccc1)C(=O)N[C@@H](CC(C)C)C(=O)[C@@]1(C)CO1", "Target of assay": "WHIM30", "cell viability of combination": 15.8}
{"Compound": "CC(C)(C)c1ccc(C(O)CCCN2CCC(C(O)(c3ccccc3)c3ccccc3)CC2)cc1 (configuration not stated) [Terfenadine] + CC(C)C[C@H](NC(=O)[C@H](CCc1ccccc1)NC(=O)CN1CCOCC1)C(=O)N[C@@H](Cc1ccccc1)C(=O)N[C@@H](CC(C)C)C(=O)[C@@]1(C)CO1", "Target of assay": "WHIM30", "cell viability of combination": 15.5}
{"Compound": "CC(=O)C1(O)Cc2c(O)c3c(c(O)c2C(OC2CC(N)C(O)C(C)O2)C1)C(=O)c1ccccc1C3=O.Cl (configuration not stated) [Idarubicin HCl] + CC(C)C[C@H](NC(=O)[C@H](CCc1ccccc1)NC(=O)CN1CCOCC1)C(=O)N[C@@H](Cc1ccccc1)C(=O)N[C@@H](CC(C)C)C(=O)[C@@]1(C)CO1", "Target of assay": "WHIM30", "cell viability of combination": 5.43}
{"Compound": "CC(C)C1=CC(=C2NNC(=O)N2c2ccc3c(ccn3C)c2)C(=O)C=C1O [Ganetespib (STA-9090)] + CC(C)C[C@H](NC(=O)[C@H](CCc1ccccc1)NC(=O)CN1CCOCC1)C(=O)N[C@@H](Cc1ccccc1)C(=O)N[C@@H](CC(C)C)C(=O)[C@@]1(C)CO1", "Target of assay": "WHIM30", "cell viability of combination": 23.7}
{"Compound": "CCCCc1oc2ccc(NS(C)(=O)=O)cc2c1C(=O)c1ccc(OCCCN(CCCC)CCCC)cc1.Cl [Dronedarone HCl] + CC(C)C[C@H](NC(=O)[C@H](CCc1ccccc1)NC(=O)CN1CCOCC1)C(=O)N[C@@H](Cc1ccccc1)C(=O)N[C@@H](CC(C)C)C(=O)[C@@]1(C)CO1", "Target of assay": "WHIM30", "cell viability of combination": 12.7}
{"Compound": "COC(=O)C12CCC(C)(C)CC1C1C(=O)C=C3C4(C)C=C(C#N)C(=O)C(C)(C)C4CCC3(C)C1(C)CC2 (configuration not stated) [Bardoxolone methyl] + CC(C)C[C@H](NC(=O)[C@H](CCc1ccccc1)NC(=O)CN1CCOCC1)C(=O)N[C@@H](Cc1ccccc1)C(=O)N[C@@H](CC(C)C)C(=O)[C@@]1(C)CO1", "Target of assay": "WHIM30", "cell viability of combination": 14.3}
{"Compound": "Cl.OC(CNCC(O)C1CCc2cc(F)ccc2O1)C1CCc2cc(F)ccc2O1 (configuration not stated) [Nebivolol] + CC(C)C[C@H](NC(=O)[C@H](CCc1ccccc1)NC(=O)CN1CCOCC1)C(=O)N[C@@H](Cc1ccccc1)C(=O)N[C@@H](CC(C)C)C(=O)[C@@]1(C)CO1", "Target of assay": "WHIM30", "cell viability of combination": 21.2}
{"Compound": "CS(=O)(=O)CCNCc1ccc(-c2ccc3ncnc(Nc4ccc(OCc5cccc(F)c5)c(Cl)c4)c3c2)o1.Cc1ccc(S(=O)(=O)O)cc1.Cc1ccc(S(=O)(=O)O)cc1 [Lapatinib Ditosylate] + CC(C)C[C@H](NC(=O)[C@H](CCc1ccccc1)NC(=O)CN1CCOCC1)C(=O)N[C@@H](Cc1ccccc1)C(=O)N[C@@H](CC(C)C)C(=O)[C@@]1(C)CO1", "Target of assay": "WHIM30", "cell viability of combination": 23.7}
{"Compound": "COc1ccc(CN2CCN(C(c3ccc(F)cc3)c3ccc(F)cc3)CC2)c(OC)c1OC.Cl.Cl [Lomerizine HCl] + CC(C)C[C@H](NC(=O)[C@H](CCc1ccccc1)NC(=O)CN1CCOCC1)C(=O)N[C@@H](Cc1ccccc1)C(=O)N[C@@H](CC(C)C)C(=O)[C@@]1(C)CO1", "Target of assay": "WHIM30", "cell viability of combination": 15.6}
{"Compound": "CC(C)c1nc(N(C)S(C)(=O)=O)nc(-c2ccc(F)cc2)c1C=CC(O)CC(O)CC(=O)[O-].CC(C)c1nc(N(C)S(C)(=O)=O)nc(-c2ccc(F)cc2)c1C=CC(O)CC(O)CC(=O)[O-].[Ca+2] (configuration not stated) [Rosuvastatin Calcium] + CC(C)C[C@H](NC(=O)[C@H](CCc1ccccc1)NC(=O)CN1CCOCC1)C(=O)N[C@@H](Cc1ccccc1)C(=O)N[C@@H](CC(C)C)C(=O)[C@@]1(C)CO1", "Target of assay": "WHIM30", "cell viability of combination": 19.6}
{"Compound": "Clc1ccc(COC(Cn2ccnc2)c2ccc(Cl)cc2Cl)c(Cl)c1.O=[N+]([O-])O (configuration not stated) [Miconazole Nitrate] + CC(C)C[C@H](NC(=O)[C@H](CCc1ccccc1)NC(=O)CN1CCOCC1)C(=O)N[C@@H](Cc1ccccc1)C(=O)N[C@@H](CC(C)C)C(=O)[C@@]1(C)CO1", "Target of assay": "WHIM30", "cell viability of combination": 14}
